The origin of these recorded values is patent US10227331B2.

# System: P. aeruginosa expressing IMP-1, efflux+ (MB9798)
# Assay type: cell-based, Pseudomonas aeruginosa
# PARTICULARS: ratio MITC95 PA_9798/MITC95 PA_9799
For each entry below, report its Efflux ratio value.
Keep it simple and answer with nothing but the number.

Req: Query for P. aeruginosa expressing IMP-1, efflux+ (MB9798): what Efflux ratio does the record show for Nc1nc2c(-c3ccc(S(=O)(=O)[C@@H]4CN[C@H](CO)C4)c(S(N)(=O)=O)c3-c3nn[nH]n3)cccc2[nH]1 ?
Resp: 1.00

Req: Query for P. aeruginosa expressing IMP-1, efflux+ (MB9798): what Efflux ratio does the record show for NCCCNC(=O)c1cccc(-c2ccc(S(=O)(=O)CCN)c(S(N)(=O)=O)c2-c2nn[nH]n2)c1N ?
Resp: 2.00

Req: Query for P. aeruginosa expressing IMP-1, efflux+ (MB9798): what Efflux ratio does the record show for Nc1n[nH]c2cc(-c3ccc(S(=O)(=O)C4CNC4)c(S(N)(=O)=O)c3-c3nn[nH]n3)ccc12 ?
Resp: 2.00

Req: Query for P. aeruginosa expressing IMP-1, efflux+ (MB9798): what Efflux ratio does the record show for CS(=O)(=O)c1ccc(-c2cnc3ccccn23)c(-c2nn[nH]n2)c1S(N)(=O)=O ?
Resp: 31.99

Req: Query for P. aeruginosa expressing IMP-1, efflux+ (MB9798): what Efflux ratio does the record show for NS(=O)(=O)c1c(S(=O)(=O)C2CNC2)ccc([C@H]2CC[C@H](N)CC2)c1-c1nnn[nH]1 ?
Resp: 2.00

Req: Query for P. aeruginosa expressing IMP-1, efflux+ (MB9798): what Efflux ratio does the record show for C[C@@H](CN)S(=O)(=O)c1ccc(-c2cccc3sc(N)nc23)c(-c2nn[nH]n2)c1S(N)(=O)=O ?
Resp: 2.00

Req: Query for P. aeruginosa expressing IMP-1, efflux+ (MB9798): what Efflux ratio does the record show for Nc1nc2cccc(-c3ccc(S(=O)(=O)[C@H]4C[C@H](N)C4)c(S(N)(=O)=O)c3-c3nn[nH]n3)c2[nH]1 ?
Resp: 1.00
